// endpoint pIC50 / system Carbonic anhydrase 2 (Homo sapiens)
Please treat pIC50 as minus the base-10 logarithm of the molar concentration.

Take a look at these entries with their results.
[
  {
    "Compound string": "O=C(NC1CCCCCCC1)P(=O)(O)O",
    "pIC50": 5.10
  },
  {
    "Compound string": "CCC(CC)NC(=O)P(=O)(O)O",
    "pIC50": 5.06
  },
  {
    "Compound string": "C[C@@H](NC(=O)P(=O)(O)O)C1CCCCC1",
    "pIC50": 5.05
  }
]

Let us move to another entry and its pIC50.
The compound listed as `O=C(NC1CCCCC1)P(=O)(O)O` has a reported pIC50 of 5.06

====

Target: Carbonic anhydrase 12 (Homo sapiens)
Sequence (O43570 whole entry): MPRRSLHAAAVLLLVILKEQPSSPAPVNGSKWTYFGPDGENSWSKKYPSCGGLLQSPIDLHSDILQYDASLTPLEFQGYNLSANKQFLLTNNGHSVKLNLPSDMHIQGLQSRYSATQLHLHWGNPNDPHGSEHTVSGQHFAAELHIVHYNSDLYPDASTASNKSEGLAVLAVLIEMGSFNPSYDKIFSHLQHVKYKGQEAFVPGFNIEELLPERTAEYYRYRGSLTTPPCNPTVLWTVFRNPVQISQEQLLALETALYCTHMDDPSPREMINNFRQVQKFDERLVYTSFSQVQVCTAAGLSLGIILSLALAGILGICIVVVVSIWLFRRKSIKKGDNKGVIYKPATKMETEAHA
# note: exactly 7 µM is not below, so it is class 0; use class 1 for IC50 strictly under it

Solved entries:
[
  {
    "Compound": "O=C(NCCCNS(=O)(=O)c1ccc(Oc2ccccc2)cc1)P(=O)(O)O",
    "Assigned label": "class 1"
  },
  {
    "Compound": "CC(C)NC(=O)P(=O)(O)O [(ISOPROPYLAMINO)CARBONYLPHOSPHONIC ACID]",
    "Assigned label": "class 0"
  },
  {
    "Compound": "O=C(NC1CCCC1)P(=O)(O)O",
    "Assigned label": "class 0"
  },
  {
    "Compound": "O=C(NCCCCCNS(=O)(=O)c1ccc(Oc2ccccc2)cc1)P(=O)(O)O",
    "Assigned label": "class 1"
  }
]

Problem: Record `CCC(CC)NC(=O)P(=O)(O)O` : is its IC50 strictly below 7 µM?
Solution: class 1

Problem: Record `O=C(NCCCCCCNS(=O)(=O)c1ccc(Oc2ccccc2)cc1)P(=O)(O)O` : is its IC50 strictly below 7 µM?
Solution: class 1

Problem: Record `O=C(NCCN1CCCC1)P(=O)(O)O` : is its IC50 strictly below 7 µM?
Solution: class 1

Problem: Record O=C(NC1CCCCC1)P(=O)(O)O [(CYCLOHEXYLAMINO)CARBONYLPHOSPHONIC ACID] : is its IC50 strictly below 7 µM?
Solution: class 1

Problem: Record `O=C(NCCCCNS(=O)(=O)c1ccc(Oc2ccccc2)cc1)P(=O)(O)O` : is its IC50 strictly below 7 µM?
Solution: class 1

Problem: Record `C[C@H](NC(=O)P(=O)(O)O)C1CCCCC1` : is its IC50 strictly below 7 µM?
Solution: class 1

Problem: Record `N[C@H]1CCCC[C@@H]1NC(=O)P(=O)(O)O` : is its IC50 strictly below 7 µM?
Solution: class 0

Problem: Record `O=C(NCCCCNC(=O)P(=O)(O)O)P(=O)(O)O` : is its IC50 strictly below 7 µM?
Solution: class 1

Problem: Record `N[C@@H]1CCCC[C@@H]1NC(=O)P(=O)(O)O` : is its IC50 strictly below 7 µM?
Solution: class 1

Problem: Record `CCOP(=O)(OCC)C(=O)NCCCCNC(=O)P(=O)(OCC)OCC` : is its IC50 strictly below 7 µM?
Solution: class 1

Problem: Record O=C(NCC1CCCCC1)P(=O)(O)O [CYCLOHEXYLMETHYLCARBAMOYLPHOSPHONIC ACID] : is its IC50 strictly below 7 µM?
Solution: class 0

====

// endpoint pIC50 / system Carbonic anhydrase 1 (Homo sapiens, UniProt P00915)
Please treat pIC50 as minus the base-10 logarithm of the molar concentration.

Take a look at these entries with their results.
[
  {
    "Compound": "N[C@H]1CCCC[C@@H]1NC(=O)P(=O)(O)O",
    "Measurement name": "pIC50",
    "Recorded result": 5.08
  },
  {
    "Compound": "O=C(NCCNC(=O)P(=O)(O)O)c1ccc(Oc2ccccc2)cc1",
    "Measurement name": "pIC50",
    "Recorded result": 6.21
  },
  {
    "Compound": "O=C(NC1CCCCC1)P(=O)(O)O [(CYCLOHEXYLAMINO)CARBONYLPHOSPHONIC ACID]",
    "Measurement name": "pIC50",
    "Recorded result": 5.10
  },
  {
    "Compound": "O=C(NCCc1ccccc1)P(=O)(O)O [PHENETHYLCARBAMOYLPHOSPHONIC ACID]",
    "Measurement name": "pIC50",
    "Recorded result": 5.11
  }
]

Value (pIC50, Carbonic anhydrase 1 (Homo sapiens, UniProt P00915)) for record CC(C)NC(=O)P(=O)(O)O [(ISOPROPYLAMINO)CARBONYLPHOSPHONIC ACID] = 5.06

Value (pIC50, Carbonic anhydrase 1 (Homo sapiens, UniProt P00915)) for record `CCOP(=O)(OCC)C(=O)NCCCCNC(=O)P(=O)(OCC)OCC` = 5.01

Value (pIC50, Carbonic anhydrase 1 (Homo sapiens, UniProt P00915)) for record `O=C(NCCCCCCNS(=O)(=O)c1ccc(Oc2ccccc2)cc1)P(=O)(O)O` = 6.42

Value (pIC50, Carbonic anhydrase 1 (Homo sapiens, UniProt P00915)) for record O=C(NCC1CCCCC1)P(=O)(O)O [CYCLOHEXYLMETHYLCARBAMOYLPHOSPHONIC ACID] = 5.13

Value (pIC50, Carbonic anhydrase 1 (Homo sapiens, UniProt P00915)) for record O=C(NC1CCCCCCC1)P(=O)(O)O [(CYCLOOCTYLAMINO)CARBONYLPHOSPHONIC ACID] = 5.10

====

Molecular target: Carbonic anhydrase 9 (Homo sapiens)
Measurement name: pIC50
Please treat pIC50 as minus the base-10 logarithm of the molar concentration.

[
  {
    "Compound string": "O=C(NCCCCNS(=O)(=O)c1ccc(Oc2ccccc2)cc1)P(=O)(O)O",
    "Recorded result": 5.21
  }
]

Value (pIC50, Carbonic anhydrase 9 (Homo sapiens)) for record `N[C@H]1CCCC[C@@H]1NC(=O)P(=O)(O)O` = 5.15

====

Molecular target: Carbonic anhydrase 1 (Homo sapiens)
Sequence (P00915 whole entry): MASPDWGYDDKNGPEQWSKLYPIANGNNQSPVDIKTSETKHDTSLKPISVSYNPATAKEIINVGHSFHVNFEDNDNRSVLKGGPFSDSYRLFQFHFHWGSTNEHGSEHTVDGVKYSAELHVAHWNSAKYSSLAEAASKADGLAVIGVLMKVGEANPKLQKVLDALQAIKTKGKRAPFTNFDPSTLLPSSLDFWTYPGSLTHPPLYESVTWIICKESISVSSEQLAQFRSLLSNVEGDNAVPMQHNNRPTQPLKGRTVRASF
Experiment: Inhibition of human Carbonic anhydrase 1-mediated CO2 hydration by stopped-flow method
Measurement name: IC50 (µM)
Return type: number; implicit unit µM.

[
  {
    "Compound string": "O=C(NCCCCCNS(=O)(=O)c1ccc(Oc2ccccc2)cc1)P(=O)(O)O",
    "Test target": "Carbonic anhydrase 1 (Homo sapiens)",
    "IC50 (µM)": 0.52
  }
]

The compound listed as `O=C(NCCN1CCCC1)P(=O)(O)O` has a reported IC50 of 9.43

The compound listed as `N[C@@H]1CCCC[C@@H]1NC(=O)P(=O)(O)O` has a reported IC50 of 1.6

The compound listed as `O=C(NC1CCCC1)P(=O)(O)O` has a reported IC50 of 8.79

The compound listed as `CCC(CC)NC(=O)P(=O)(O)O` has a reported IC50 of 6.71

====

Experiment: Volume of distribution at steady state in Sprague-Dawley rat at 33 mg/kg, iv
Format: ADME, organism-based
Design: dose 33 mg/kg, route intravenous
Details: in vivo, read-out: Vdss
Measurement name: Vd (L/kg)
Return type: number; implicit unit L/kg.

The compound listed as `O=C(NCCCCCNS(=O)(=O)c1ccc(Oc2ccccc2)cc1)P(=O)(O)O` has a reported Vd of 1.65

====

Catalogue of molecules with associated pIC50
Target: Carbonic anhydrase 2 (Homo sapiens, UniProt P00918)
Experiment: Inhibition of human Carbonic anhydrase 2-mediated CO2 hydration by stopped-flow method
Please treat pIC50 as minus the base-10 logarithm of the molar concentration.

Take a look at these entries with their results.
[
  {
    "Molecule": "O=C(NCCCCNC(=O)P(=O)(O)O)P(=O)(O)O",
    "Recorded result": 5.05
  },
  {
    "Molecule": "O=C(NC1CCCC1)P(=O)(O)O",
    "Recorded result": 5.13
  },
  {
    "Molecule": "N[C@@H]1CCCC[C@@H]1NC(=O)P(=O)(O)O",
    "Recorded result": 5.88
  },
  {
    "Molecule": "CCOP(=O)(OCC)C(=O)NCCCCNC(=O)P(=O)(OCC)OCC",
    "Recorded result": 5.02
  },
  {
    "Molecule": "N[C@H]1CCCC[C@@H]1NC(=O)P(=O)(O)O",
    "Recorded result": 5.08
  },
  {
    "Molecule": "O=C(NCCc1ccccc1)P(=O)(O)O [PHENETHYLCARBAMOYLPHOSPHONIC ACID]",
    "Recorded result": 5.10
  }
]

The molecule listed as `C[C@H](NC(=O)P(=O)(O)O)C1CCCCC1` has a reported pIC50 of 5.02

====

// endpoint pIC50 / system Carbonic anhydrase 9 (Homo sapiens, UniProt Q16790)
Please treat pIC50 as minus the base-10 logarithm of the molar concentration.

Value (pIC50, Carbonic anhydrase 9 (Homo sapiens, UniProt Q16790)) for record `O=C(NC1CCCCC1)P(=O)(O)O` = 5.05

Value (pIC50, Carbonic anhydrase 9 (Homo sapiens, UniProt Q16790)) for record `CCC(CC)NC(=O)P(=O)(O)O` = 5.08

Value (pIC50, Carbonic anhydrase 9 (Homo sapiens, UniProt Q16790)) for record `O=C(NCCCCCCNS(=O)(=O)c1ccc(Oc2ccccc2)cc1)P(=O)(O)O` = 5.15

Value (pIC50, Carbonic anhydrase 9 (Homo sapiens, UniProt Q16790)) for record `CC(C)NC(=O)P(=O)(O)O` = 5.08

Value (pIC50, Carbonic anhydrase 9 (Homo sapiens, UniProt Q16790)) for record `O=C(NCC1CCCCC1)P(=O)(O)O` = 5.07

Value (pIC50, Carbonic anhydrase 9 (Homo sapiens, UniProt Q16790)) for record `O=C(NCCCCNC(=O)P(=O)(O)O)P(=O)(O)O` = 5.04

Value (pIC50, Carbonic anhydrase 9 (Homo sapiens, UniProt Q16790)) for record `O=C(NCCNS(=O)(=O)c1ccc(Oc2ccccc2)cc1)P(=O)(O)O` = 5.15

Value (pIC50, Carbonic anhydrase 9 (Homo sapiens, UniProt Q16790)) for record `O=C(NCCNC(=O)P(=O)(O)O)c1ccc(Oc2ccccc2)cc1` = 5.00
